All values here come from patent US6828304B1.

System: U87MG (Glioblastoma) tumor cells
Experiment: MTT cytotoxicity assay, U87MG cells
Assay type: cell-based
Settings: 10 nM, 48 hours
Description: The cytotoxic effect of Lipo peptide analogs, DT-A1 (SEQ ID NO: 2), DT-B1 (SEQ ID NO: 3), DT-01 (SEQ ID NO: 4), DT-M1 (SEQ ID NO: 5) and DT-P1 (SEQ ID NO: 6) was studied by MTT assay which is based on the principle of uptake of MTT [3-[4,5-dimethylthiazol-2-yl]-2,5-diphenyl tetrazolium bromide], a tetrazolium salt by the metabolically active cells where it is metabolized by active mitochondria into a blue colored formazan product which can be read spectrophotometrically. […]
* marks the point of attachment. Palmitoyl = CCCCCCCCCCCCCCCC(=O)*; Octanoyl = CCCCCCCC(=O)*; Butyryl = CCCC(=O)*
endpoint.label: Percentage cytotoxicity (%)

substance="n-Butanoyl-Leu-Met-Tyr-Pro-Thr-Tyr-Leu-Lys-OH (Butyryl-LMYPTYLK-OH) [DT-B1]" test_target="U87MG (Glioblastoma) tumor cells" recorded_result=39.7
substance="Ac-LMYPTYLK-OH [DT-A1]" test_target="U87MG (Glioblastoma) tumor cells" recorded_result=29.9
substance="Palmitoyl-Leu-Met-Tyr-Pro-Thr-Tyr-Leu-Lys-OH (Palmitoyl-LMYPTYLK-OH) [DT-P1]" test_target="U87MG (Glioblastoma) tumor cells" recorded_result=34.0
substance="n-Octanoyl-Leu-Met-Tyr-Pro-Thr-Tyr-Leu-Lys-OH (Octanoyl-LMYPTYLK-OH) [DT-O1]" test_target="U87MG (Glioblastoma) tumor cells" recorded_result=38.7
